EXPERIMENTAL PROTOCOL: chemical genetic growth profiling, strain panel (AID 1159580);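 note: tested at 20 µM; growth read once vehicle control cultures reached saturation at 30 °C; 1 = growth at the plate median or of vehicle wells; lower values mean less growth of the strain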
COND: S. cerevisiae deletion strains, growth OD, locus YPL256C, strain CLN2, active compounds read low
Screen size: about 5,500 compounds; about 2,000 (36%) were called active. Roughly 18% stayed inconclusive and do not appear here. Some of the results follow.
So basically, if normalized growth comes in under 1 it's true, and if it's 1 or more it's false.

COc1c(O)cc2c(c1O)[C@H]1O[C@H](CO)[C@@H](O)[C@H](O)[C@@H]1OC2=O | true
C[C@H]1O[C@@H](O[C@H]2[C@@H](O)C[C@H](O[C@H]3[C@@H](O)C[C@H](O[C@H]4CC[C@]5(C)C6C[C@@H](O)[C@]7(C)[C@@H](C8=CC(=O)OC8)CC[C@]7(O)C6CC[C@@H]5C4)O[C@@H]3C)O[C@@H]2C)C[C@H](O)[C@@H]1O (stereo not given in full) | false
COC1C(O)C(C)OC(O[C@H]2CC[C@]3(C=O)C4C(CC[C@]3(O)C2)[C@@]2(O)CC[C@H](C3=CC(=O)OC3)[C@@]2(C)C[C@H]4O)C1O (stereo not given in full) | false
O=C(Nc1cc2ccccc2s1)N1CCN(Cc2c(F)cccc2Cl)CC1 | true
C[C@]12CC[C@H](O)C[C@H]1CCC1C2CC[C@]2(C)[C@@H](C3=CC(=O)OC3)[C@@H](O)C[C@]12O (stereo not given in full) | false
CO[C@@H]1[C@@H](OC(N)=O)[C@@H](O)[C@H](Oc2ccc3c(O)c(NC(=O)c4ccc(O)c(CC=C(C)C)c4)c(=O)oc3c2C)OC1(C)C | true

====

EXPERIMENTAL PROTOCOL: chemical genetic growth profiling, strain panel (AID 1159580);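 note: tested at 20 µM; growth read once vehicle control cultures reached saturation at 30 °C; 1 = growth at the plate median or of vehicle wells; lower values mean less growth of the strain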
COND: S. cerevisiae deletion strains, growth OD, locus YPL078C, strain atp4, active compounds read low
In all, about 5,500 compounds went through this assay and about 2,000 (36%) were called active. About 18% were inconclusive and are not listed. The list shows a part of the results.
MEASURED QUANTITY: normalized growth

COP(N)(=O)SC (stereo unspecified) | 0.986
COc1cc(O)c2c(=O)cc(-c3ccc(OC)c(-c4c(O)cc(O)c5c(=O)cc(-c6ccc(O)cc6)oc45)c3)oc2c1 | 1.03
C/C=C/CC(C)C(O)C1C(=O)NC(CC)C(=O)N(C)CC(=O)N(C)C(CC(C)C)C(=O)NC(C(C)C)C(=O)N(C)C(CC(C)C)C(=O)NC(C)C(=O)NC(C)C(=O)N(C)C(CC(C)C)C(=O)N(C)C(CC(C)C)C(=O)N(C)C(C(C)C)C(=O)N1C (stereo unspecified) | 1.02
N#Cc1c(Cl)cccc1Cl | 0.984
NC[C@@H]1O[C@H](O[C@@H]2[C@@H](CO)OC(O[C@@H]3[C@@H](O)[C@H](N)C[C@H](N)[C@H]3O[C@H]3O[C@H](CO)[C@@H](O)[C@H](O)[C@H]3N)[C@@H]2O)[C@H](N)[C@@H](O)[C@@H]1O (stereo partly specified) | 0.99
C[C@H]1O[C@H](O[C@H]2[C@H](O)[C@@H](O)[C@@H](O[C@H]3[C@H](O)[C@@H](O)C(O)O[C@@H]3CO)O[C@@H]2CO)[C@H](O)[C@@H](O)[C@@H]1N[C@H]1C=C(CO)[C@@H](O)[C@H](O)[C@H]1O (stereo partly specified) | 0.948
